test system: 966289-007-R4-J1-PDC complex spheroid viability; test: Anticancer human tumor 966289-007-R4-J1-PDC patient-derived pancreatic adenocarcinoma cell line growth inhibition [RAS]; conditions: second compound 0.1 µM; first compound 0.003 µM; active means viability on the fitted dose curve at most 10% of control; inactive means the rest;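 further: spheroids exposed to agents for one week before readout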
Response enum: active, inactive

For orientation, consider the following solved cases.
>>> group_label("CC1(C)CCC(Nc2ncc(C(F)(F)F)c(-c3c[nH]c4c(P(C)(C)=O)c(C#N)ccc34)n2)CN1 (centres undefined) + C=CC(=O)N1CCN(c2nc(OCC3CCCN3C)nc3c(F)c(-c4nc(N)cc(C)c4C(F)(F)F)c(Cl)cc23)C(C)C1")
"inactive"
>>> group_label("CCc1c2c(nc3ccc(O)cc13)-c1cc3c(c(=O)n1C2)COC(=O)[C@]3(O)CC + C#Cc1c(F)ccc2cc(O)cc(-c3ncc4c(N5CC6CCC(C5)N6)nc(OCC56CCCN5CC(F)C6)nc4c3F)c12")
"active"
>>> group_label("CC1(C)CCC(Nc2ncc(C(F)(F)F)c(-c3c[nH]c4c(P(C)(C)=O)c(C#N)ccc34)n2)CN1 (centres undefined) + C#Cc1c(F)ccc2cc(O)cc(-c3ncc4c(N5CC6CCC(C5)N6)nc(OCC56CCCN5CC(F)C6)nc4c3F)c12")
"inactive"

# next molecule below
Task: Recorded test call requested for CCc1c2c(nc3ccc(O)cc13)-c1cc3c(c(=O)n1C2)COC(=O)[C@]3(O)CC + C=CC(=O)N1CCN(c2nc(OCC3CCCN3C)nc3c(F)c(-c4nc(N)cc(C)c4C(F)(F)F)c(Cl)cc23)C(C)C1
Result: active
